- System: STR[…] 508
- assayOverview: In vitro assay of antibacterial activity (agar dilution MIC)
- Assay type: cell-based
- testConditions: STREPTOCOCCUS AGALACTIAE CMX 508; BHI agar, 35-37 °C for 20 to 24 hours; unit assumed
So I've got a bunch of compounds here, and I need their Antibacterial Activity (MIC's) values.
Express the result in µg/mL but write the number alone.

Problem: Reported Antibacterial Activity (MIC's) for "CC[C@H]1OC(=O)[C@H](C)C(=O)[C@H](C)[C@@H](O[C@@H]2O[C@H](C)C[C@H](N(C)C)[C@H]2O)[C@](C)(OC)C[C@@H](C)C2=Nc3cc(C#N)ccc3N3C(=O)O[C@@]1(C)[C@H]3[C@H]2C" : what is it?
Solution: 0.05

Problem: Reported Antibacterial Activity (MIC's) for "CC[C@H]1OC(=O)[C@H](C)C(=O)[C@H](C)[C@@H](O[C@@H]2O[C@H](C)C[C@H](N(C)C)[C@H]2O)[C@](C)(OC)C[C@@H](C)C2=Nc3cc(C)ccc3N3C(=O)O[C@@]1(C)[C@H]3[C@H]2C" : what is it?
Solution: 0.01

Problem: Reported Antibacterial Activity (MIC's) for CC[C@H]1OC(=O)[C@H](C)C(=O)[C@H](C)[C@@H](O[C@@H]2O[C@H](C)C[C@H](N(C)C)[C@H]2O)[C@](C)(OC)C[C@@H](C)C2Nc3ccccc3N3C(=O)O[C@@]1(C)[C@H]3[C@H]2C (single isomer, unassigned) : what is it?
Solution: 3.1

Problem: Reported Antibacterial Activity (MIC's) for "C=CCO[C@]1(C)C[C@@H](C)C2=Nc3ccccc3N3C(=O)O[C@](C)([C@@H](CC)OC(=O)[C@H](C)C(=O)[C@H](C)[C@H]1O[C@@H]1O[C@H](C)C[C@H](N(C)C)[C@H]1O)[C@H]3[C@H]2C" : what is it?
Solution: 0.39

Problem: Reported Antibacterial Activity (MIC's) for "CC[C@H]1OC(=O)[C@H](C)C(=O)[C@H](C)[C@@H](O[C@@H]2O[C@H](C)C[C@H](N(C)C)[C@H]2O)[C@](C)(OC)C[C@@H](C)C2=Nc3cccnc3N3C(=O)O[C@@]1(C)[C@H]3[C@H]2C" : what is it?
Solution: 0.05

Problem: Reported Antibacterial Activity (MIC's) for "CC[C@H]1OC(=O)[C@H](C)C(=O)[C@H](C)[C@@H](O[C@@H]2O[C@H](C)C[C@H](N(C)C)[C@H]2O)[C@](C)(OC)C[C@@H](C)C2=Nc3ccccc3N3C(=O)O[C@@]1(C)[C@H]3[C@H]2C" : what is it?
Solution: 0.1

Problem: Reported Antibacterial Activity (MIC's) for "CC[C@H]1OC(=O)[C@H](C)C(=O)[C@H](C)[C@@H](O[C@@H]2O[C@H](C)C[C@H](N(C)C)[C@H]2O)[C@](C)(OC)C[C@@H](C)C2=Nc3cc(OC)ccc3N3C(=O)O[C@@]1(C)[C@H]3[C@H]2C" : what is it?
Solution: 0.02

----------
- Tested on: M[…] ATCC 9341
- assayOverview: In vitro assay of antibacterial activity (agar dilution MIC)
- Type: cell-based
- testConditions: MICROCOCCUS LUTEUS ATCC 9341; BHI agar, 35-37 °C for 20 to 24 hours; unit assumed
recordedMetric: Antibacterial Activity (MIC's)
Kindly format the answer as number then unit.

Problem: # returns recorded Antibacterial Activity (MIC's) (system: M[…] ATCC 9341) for CC[C@H]1OC(=O)[C@H](C)C(=O)[C@H](C)[C@@H](O[C@@H]2O[C@H](C)C[C@H](N(C)C)[C@H]2O)[C@](C)(OC)C[C@@H](C)C2=Nc3cccnc3N3C(=O)O[C@@]1(C)[C@H]3[C@H]2C [Ex 7]
Solution: 0.05 µg/mL

Problem: # returns recorded Antibacterial Activity (MIC's) (system: M[…] ATCC 9341) for CC[C@H]1OC(=O)[C@H](C)C(=O)[C@H](C)[C@@H](O[C@@H]2O[C@H](C)C[C@H](N(C)C)[C@H]2O)[C@](C)(OC)C[C@@H](C)C2=Nc3ccccc3N3C(=O)O[C@@]1(C)[C@H]3[C@H]2C [Ex 2]
Solution: 0.1 µg/mL

Problem: # returns recorded Antibacterial Activity (MIC's) (system: M[…] ATCC 9341) for CC[C@H]1OC(=O)[C@H](C)C(=O)[C@H](C)[C@@H](O[C@@H]2O[C@H](C)C[C@H](N(C)C)[C@H]2O)[C@](C)(OC)C[C@@H](C)C2Nc3ccccc3N3C(=O)O[C@@]1(C)[C@H]3[C@H]2C (single isomer, unassigned) [Ex 3]
Solution: 3.1 µg/mL

Problem: # returns recorded Antibacterial Activity (MIC's) (system: M[…] ATCC 9341) for C=CCO[C@]1(C)C[C@@H](C)C2=Nc3ccccc3N3C(=O)O[C@](C)([C@@H](CC)OC(=O)[C@H](C)C(=O)[C@H](C)[C@H]1O[C@@H]1O[C@H](C)C[C@H](N(C)C)[C@H]1O)[C@H]3[C@H]2C [Ex 8]
Solution: 0.78 µg/mL

Problem: # returns recorded Antibacterial Activity (MIC's) (system: M[…] ATCC 9341) for CC[C@H]1OC(=O)[C@H](C)C(=O)[C@H](C)[C@@H](O[C@@H]2O[C@H](C)C[C@H](N(C)C)[C@H]2O)[C@](C)(OC)C[C@@H](C)C2=Nc3cc(C)ccc3N3C(=O)O[C@@]1(C)[C@H]3[C@H]2C [Ex 4]
Solution: 0.1 µg/mL

Problem: # returns recorded Antibacterial Activity (MIC's) (system: M[…] ATCC 9341) for CC[C@H]1OC(=O)[C@H](C)C(=O)[C@H](C)[C@@H](O[C@@H]2O[C@H](C)C[C@H](N(C)C)[C@H]2O)[C@](C)(OC)C[C@@H](C)C2=Nc3cc(C#N)ccc3N3C(=O)O[C@@]1(C)[C@H]3[C@H]2C [Ex 6]
Solution: 0.05 µg/mL

Problem: # returns recorded Antibacterial Activity (MIC's) (system: M[…] ATCC 9341) for CC[C@H]1OC(=O)[C@H](C)C(=O)[C@H](C)[C@@H](O[C@@H]2O[C@H](C)C[C@H](N(C)C)[C@H]2O)[C@](C)(OC)C[C@@H](C)C2=Nc3cc(OC)ccc3N3C(=O)O[C@@]1(C)[C@H]3[C@H]2C [Ex 5]
Solution: 0.1 µg/mL

----------
- System: STREPTOCOCCUS PYOGENES PIU 2548
- assayOverview: In vitro assay of antibacterial activity (agar dilution MIC)
- Assay type: cell-based
- testConditions: STREPTOCOCCUS PYOGENES PIU 2548; BHI agar, 35-37 °C for 20 to 24 hours; unit assumed
So I've got a bunch of molecules here, and I need their Antibacterial Activity (MIC's) values.
Express the result in µg/mL but write the number alone.

Problem: # returns recorded Antibacterial Activity (MIC's) (system: STREPTOCOCCUS PYOGENES PIU 2548) for "CC[C@H]1OC(=O)[C@H](C)C(=O)[C@H](C)[C@@H](O[C@@H]2O[C@H](C)C[C@H](N(C)C)[C@H]2O)[C@](C)(OC)C[C@@H](C)C2=Nc3cc(OC)ccc3N3C(=O)O[C@@]1(C)[C@H]3[C@H]2C"
Solution: 0.39

Problem: # returns recorded Antibacterial Activity (MIC's) (system: STREPTOCOCCUS PYOGENES PIU 2548) for "CC[C@H]1OC(=O)[C@H](C)C(=O)[C@H](C)[C@@H](O[C@@H]2O[C@H](C)C[C@H](N(C)C)[C@H]2O)[C@](C)(OC)C[C@@H](C)C2=Nc3cc(C)ccc3N3C(=O)O[C@@]1(C)[C@H]3[C@H]2C"
Solution: 0.2

Problem: # returns recorded Antibacterial Activity (MIC's) (system: STREPTOCOCCUS PYOGENES PIU 2548) for "CC[C@H]1OC(=O)[C@H](C)C(=O)[C@H](C)[C@@H](O[C@@H]2O[C@H](C)C[C@H](N(C)C)[C@H]2O)[C@](C)(OC)C[C@@H](C)C2=Nc3cccnc3N3C(=O)O[C@@]1(C)[C@H]3[C@H]2C"
Solution: 0.39

Problem: # returns recorded Antibacterial Activity (MIC's) (system: STREPTOCOCCUS PYOGENES PIU 2548) for "CC[C@H]1OC(=O)[C@H](C)C(=O)[C@H](C)[C@@H](O[C@@H]2O[C@H](C)C[C@H](N(C)C)[C@H]2O)[C@](C)(OC)C[C@@H](C)C2=Nc3ccccc3N3C(=O)O[C@@]1(C)[C@H]3[C@H]2C"
Solution: 0.39

Problem: # returns recorded Antibacterial Activity (MIC's) (system: STREPTOCOCCUS PYOGENES PIU 2548) for CC[C@H]1OC(=O)[C@H](C)C(=O)[C@H](C)[C@@H](O[C@@H]2O[C@H](C)C[C@H](N(C)C)[C@H]2O)[C@](C)(OC)C[C@@H](C)C2Nc3ccccc3N3C(=O)O[C@@]1(C)[C@H]3[C@H]2C (single isomer, unassigned)
Solution: 25

Problem: # returns recorded Antibacterial Activity (MIC's) (system: STREPTOCOCCUS PYOGENES PIU 2548) for "CC[C@H]1OC(=O)[C@H](C)C(=O)[C@H](C)[C@@H](O[C@@H]2O[C@H](C)C[C@H](N(C)C)[C@H]2O)[C@](C)(OC)C[C@@H](C)C2=Nc3cc(C#N)ccc3N3C(=O)O[C@@]1(C)[C@H]3[C@H]2C"
Solution: 0.39

Problem: # returns recorded Antibacterial Activity (MIC's) (system: STREPTOCOCCUS PYOGENES PIU 2548) for "C=CCO[C@]1(C)C[C@@H](C)C2=Nc3ccccc3N3C(=O)O[C@](C)([C@@H](CC)OC(=O)[C@H](C)C(=O)[C@H](C)[C@H]1O[C@@H]1O[C@H](C)C[C@H](N(C)C)[C@H]1O)[C@H]3[C@H]2C"
Solution: 0.78
